MEASURED_ON: Recombinant Human CTLA4-Fc chimera (R&D systems) (human) (UniProt P16410)
ASSAY_INFO: ELISA, signal over SA
Reported ELISA S/N(SA) values are given for each entry in this list.

# BINDER, ELISA S/N(SA)
measured = [
    ("GGCMHPYLPIKSVHFCPL (peptide, not shown: large carriers; small tags and cut ends) [C4m#19-5th2w-NNS6-55]", 28.3),
    ("GGCWHPFLPISSWHFCGL (peptide, not shown: large carriers; small tags and cut ends) [C4m3127-4th-NNS6-60]", 11.9),
    ("GGCWHPFLPIKSVHFCCA (peptide, not shown: large carriers; small tags and cut ends) [C4m#19-5th4w-NN6-75]", 5.6),
    ("GGCRHPFLPIVSRHFCVA (peptide, not shown: large carriers; small tags and cut ends) [C4m#19-5th2w-NNS6-79]", 9.2),
    ("GGCWHPYLPILSRHFCQA (peptide, not shown: large carriers; small tags and cut ends) [C4m#19-5th4w-NN6-63]", 16.5),
    ("GGCRHPFLPIRSPHFCGS (peptide, not shown: large carriers; small tags and cut ends) [C4m3127-4th-NNS6-7]", 4.7),
    ("GGCSHPFLPIFSLHFCPV (peptide, not shown: large carriers; small tags and cut ends) [C4m#19-5th4w-NN6-38]", 16.6),
    ("GGCLHPFLPIRSVHFCGC (peptide, not shown: large carriers; small tags and cut ends) [C4m#19-5th4w-NN6-52]", 28.6),
    ("GGCLHPGLPIRSLHFCPR (peptide, not shown: large carriers; small tags and cut ends) [C4m#19-5th4w-NN6-54]", 33.3),
    ("GGCFHPFLPIRSHHFCML (peptide, not shown: large carriers; small tags and cut ends) [C4m#19-5th4w-NN6-40]", 4),
    ("GGCLHPWLPIRSRHFCSR (peptide, not shown: large carriers; small tags and cut ends) [C4m#19-5th4w-NN6-68]", 24.7),
    ("GGCRHPFLPISSIHFCCI (peptide, not shown: large carriers; small tags and cut ends) [C4m#19-5th4w-NN6-58]", 18.7),
    ("GGCWHPVLPIRSVHFCCR (peptide, not shown: large carriers; small tags and cut ends) [C4m#19-5th4w-NN6-64]", 13.7),
    ("GGCWHPHLPIVSSHFCLF (peptide, not shown: large carriers; small tags and cut ends) [C4m#19-5th4w-NN6-2]", 18.4),
    ("GGCAHPHLPIRSVHFCSF (peptide, not shown: large carriers; small tags and cut ends) [C4m3127-4th-NNS6-66]", 4.8),
    ("GGCWHPVLPIRSGHFCSR (peptide, not shown: large carriers; small tags and cut ends) [C4m3127-4th-NNS6-95]", 3.4),
    ("GGCRHPFLPIWSSHFCAA (peptide, not shown: large carriers; small tags and cut ends) [C4m#19-5th2w-NNS6-43]", 4.8),
]
